Target: Human recombinant Acetyl-CoA Carboxylase 2 (ACC2) (Homo sapiens, UniProt O00763)
Sequence (O00763 whole entry): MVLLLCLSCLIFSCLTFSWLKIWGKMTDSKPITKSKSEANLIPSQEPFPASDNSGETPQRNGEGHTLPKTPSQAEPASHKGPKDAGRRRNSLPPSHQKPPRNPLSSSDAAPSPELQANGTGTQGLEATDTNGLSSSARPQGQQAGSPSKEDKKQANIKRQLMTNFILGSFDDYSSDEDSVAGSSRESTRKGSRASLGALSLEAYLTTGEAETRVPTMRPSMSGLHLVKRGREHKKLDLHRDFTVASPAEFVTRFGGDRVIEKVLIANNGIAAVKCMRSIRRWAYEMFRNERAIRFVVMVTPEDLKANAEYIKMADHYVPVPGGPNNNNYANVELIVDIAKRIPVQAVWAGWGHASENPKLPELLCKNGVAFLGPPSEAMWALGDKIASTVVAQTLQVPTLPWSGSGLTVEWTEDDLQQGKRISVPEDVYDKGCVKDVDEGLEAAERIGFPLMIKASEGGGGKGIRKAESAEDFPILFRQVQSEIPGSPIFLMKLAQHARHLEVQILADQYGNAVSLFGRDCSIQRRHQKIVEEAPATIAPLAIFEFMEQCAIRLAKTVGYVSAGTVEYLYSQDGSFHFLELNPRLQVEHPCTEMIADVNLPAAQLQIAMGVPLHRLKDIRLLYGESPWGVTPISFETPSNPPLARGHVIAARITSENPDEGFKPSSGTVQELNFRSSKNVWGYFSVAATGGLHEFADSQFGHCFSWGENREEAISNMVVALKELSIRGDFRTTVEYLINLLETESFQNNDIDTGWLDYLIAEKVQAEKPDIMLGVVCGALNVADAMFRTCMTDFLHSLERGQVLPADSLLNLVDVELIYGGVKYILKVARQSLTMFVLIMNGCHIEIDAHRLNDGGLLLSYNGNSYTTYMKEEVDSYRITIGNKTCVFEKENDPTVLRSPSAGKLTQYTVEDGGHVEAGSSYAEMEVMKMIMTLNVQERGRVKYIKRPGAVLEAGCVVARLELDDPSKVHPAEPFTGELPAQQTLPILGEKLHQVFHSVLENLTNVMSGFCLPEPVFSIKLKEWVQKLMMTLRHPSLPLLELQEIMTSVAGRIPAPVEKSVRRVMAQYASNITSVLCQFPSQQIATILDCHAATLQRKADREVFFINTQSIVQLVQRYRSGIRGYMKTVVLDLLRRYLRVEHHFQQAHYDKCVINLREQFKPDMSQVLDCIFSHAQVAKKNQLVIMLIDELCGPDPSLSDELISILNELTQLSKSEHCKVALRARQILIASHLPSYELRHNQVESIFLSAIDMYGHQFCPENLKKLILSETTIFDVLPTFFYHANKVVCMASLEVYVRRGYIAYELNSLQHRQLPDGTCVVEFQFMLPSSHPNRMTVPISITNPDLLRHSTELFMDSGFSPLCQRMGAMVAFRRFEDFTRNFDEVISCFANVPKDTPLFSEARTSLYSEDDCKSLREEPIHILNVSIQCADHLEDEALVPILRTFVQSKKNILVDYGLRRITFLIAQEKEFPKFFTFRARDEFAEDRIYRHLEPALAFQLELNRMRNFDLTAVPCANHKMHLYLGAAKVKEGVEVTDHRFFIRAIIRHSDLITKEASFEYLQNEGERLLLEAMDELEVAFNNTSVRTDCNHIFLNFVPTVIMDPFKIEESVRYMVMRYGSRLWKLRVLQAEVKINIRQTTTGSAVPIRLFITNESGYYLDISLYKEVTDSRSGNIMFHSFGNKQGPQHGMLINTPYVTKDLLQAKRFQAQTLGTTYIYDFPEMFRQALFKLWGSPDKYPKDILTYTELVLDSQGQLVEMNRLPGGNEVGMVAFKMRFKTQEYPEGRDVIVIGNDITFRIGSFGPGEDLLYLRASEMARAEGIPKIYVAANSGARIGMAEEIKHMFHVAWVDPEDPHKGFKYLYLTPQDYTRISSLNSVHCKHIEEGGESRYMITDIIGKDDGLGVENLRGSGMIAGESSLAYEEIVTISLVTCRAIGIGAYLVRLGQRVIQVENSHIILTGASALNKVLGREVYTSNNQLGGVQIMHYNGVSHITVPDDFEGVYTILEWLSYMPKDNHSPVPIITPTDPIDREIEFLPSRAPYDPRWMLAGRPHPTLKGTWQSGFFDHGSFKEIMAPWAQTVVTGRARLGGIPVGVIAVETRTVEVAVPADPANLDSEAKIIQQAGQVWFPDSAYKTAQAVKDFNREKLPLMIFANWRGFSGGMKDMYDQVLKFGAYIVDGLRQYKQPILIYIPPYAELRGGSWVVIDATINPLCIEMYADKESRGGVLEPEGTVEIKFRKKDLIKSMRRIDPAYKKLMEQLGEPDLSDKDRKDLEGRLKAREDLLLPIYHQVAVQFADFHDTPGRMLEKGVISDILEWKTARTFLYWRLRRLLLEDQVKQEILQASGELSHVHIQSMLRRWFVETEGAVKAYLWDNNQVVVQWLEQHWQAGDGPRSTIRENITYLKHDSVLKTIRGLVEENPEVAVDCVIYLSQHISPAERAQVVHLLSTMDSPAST
Experiment: Assay X: ACC2 inhibition, inorganic phosphate (malachite green)
Assay type: biochemical
Details: Assay X: 37° C., 1.5 h, 5 min pre-incubation
# strict inequality: IC50 < 400 nM yields satisfied, everything else yields not satisfied

These solved cases illustrate the format of a correct answer.
# structure, group
rows = [
    ("CC(C)(C)OC(=O)NC[C@H]1CC[C@H](CNC(=O)c2cc(N3CCC(CCNC4CCOCC4)CC3)nc3ccccc23)CC1", "satisfied"),
    ("CC(C)(C)OC(=O)NC[C@H]1CC[C@H](CNC(=O)c2cc(-c3ccc(NCCCO)nc3)nc3ccccc23)CC1", "satisfied"),
    ("CN1CCC(C2CCN(c3cc(C(=O)NC[C@H]4CC[C@H](CNC(=O)OC(C)(C)C)CC4)c4ccccc4n3)CC2)CC1", "satisfied"),
    ("CN1CCN(CCOc2ccc(-c3cc(C(=O)NC[C@H]4CC[C@H](CNC(=O)OC(C)(C)C)CC4)c4ccccc4n3)cn2)CC1", "not satisfied"),
    ("CC(C)(C)OC(=O)NC[C@H]1CC[C@H](CNC(=O)c2cc(-c3ccc(N)nc3)nc(-c3cccc(CN)c3)c2)CC1", "satisfied"),
]

Task: Is it true that IC50 reported for "CC(C)(C)OC(=O)NC[C@H]1CC[C@H](CNC(=O)c2c(N)sc3ccccc23)CC1" is less than 400 nM?
Output: not satisfied

Task: Same thing, different compound: "CC(C)(C)OC(=O)NC[C@H]1CC[C@H](CNC(=O)c2cc(-c3ccc(N4CCC(O)CC4)nc3)nc3ccccc23)CC1"
Output: satisfied

Task: Same thing, different compound: "CN(C)CCOC1CN(c2cc(C(=O)NC[C@H]3CC[C@H](CNC(=O)OC(C)(C)C)CC3)c3ccccc3n2)C1"
Output: not satisfied

Task: Same thing, different compound: "Cc1cnc(CNc2ccc(-c3cc(C(=O)NC[C@H]4CC[C@H](CNC(=O)OC(C)(C)C)CC4)c4ccccc4n3)cn2)cn1"
Output: satisfied

Task: Same thing, different compound: "CC(C)(C)OC(=O)NC[C@H]1CC[C@H](CNC(=O)c2cc(-c3ccc(N4CNC(=O)C4)nc3)nc3ccccc23)CC1"
Output: satisfied

Task: Same thing, different compound: "O=C(NC[C@H]1CC[C@H](CNC(=O)c2cc(-c3ccc(NCCO)nc3)nc3ccccc23)CC1)OC1CCOCC1"
Output: not satisfied

Task: Same thing, different compound: "CC(C)(C)OC(=O)NC[C@H]1CC[C@H](CNC(=O)c2cc(N3CCC(CCN4CCC4)CC3)nc3ccccc23)CC1"
Output: satisfied

Task: Same thing, different compound: "CC(C)(C)OC(=O)NC[C@H]1CC[C@H](CNC(=O)c2cc(N3CCC(CCN4CCCC4)CC3)nc3ccccc23)CC1"
Output: satisfied
